measurement.protocol: Oral bioavailability in Sprague-Dawley rat at 4 mg/kg
Assay type: ADME, organism-based
test.settings: in vivo
measured.metric: bioavailability (%)

Example entries and their recorded answers appear below.
CC[C@H](NC(C)=O)c1cc(Cl)ccc1C1CCN(C(=O)[C@@H]2CN(C(C)(C)C)C[C@H]2c2ccc(Br)cc2F)CC1 ... 24.7
CC[C@H](NC(C)=O)c1cc(Cl)ccc1C1CCN(C(=O)[C@H]2CN(C(C)(C)C)C[C@@H]2c2ccc(Br)cc2F)CC1 ... 34.3

I: CC[C@H](NC(C)=O)c1cc(Cl)ccc1C1CCN(C(=O)[C@@H]2CN(C(C)(C)C)C[C@H]2c2ccc(Cl)cc2F)CC1
II: CC[C@H](NC(C)=O)c1cc(Cl)ccc1C1CCN(C(=O)[C@@H]2CN(C(C)(C)C)C[C@H]2c2ccc(OC)cc2F)CC1
III: CC[C@H](NC(C)=O)c1cc(Cl)ccc1C1CCN(C(=O)[C@@H]2CN(C(C)(C)C)C[C@H]2c2ccc3ccccc3c2)CC1
## Input Arrange by bioavailability, high to low. Give the order by naming the labels one after another as requested.
## Output I, III, II

# credit: ChEMBL document CHEMBL1143099
